- assay_summary: Volume of distribution at steady state in mouse at 1 mg/kg, iv administered through cassette dosing
- Type: ADME, organism-based
- condition_details: in vivo, read-out: Vdss
# key: entry, value: Vd
Your answer is read as L/kg, so omit the unit and give the number.

I am curious: what Vd value has been reported for Cc1n[nH]c(C)c1[C@H](C)NC(=O)COc1cc(C(F)(F)F)c2c(-c3ccccc3)nn(C)c2n1 ?
0.5

I am curious: what Vd value has been reported for Cc1ccc2c(n1)CC[C@@H]2NC(=O)COc1cc(C)c2c(C3CC3)nn(C)c2n1 ?
0.4

I am curious: what Vd value has been reported for COc1ccc([C@H](C)NC(=O)COc2cc(C(F)(F)F)c3c(-c4ccccc4)nn(C)c3n2)cc1 ?
2

----------
- measurement_target: Orexin receptor type 2 (Homo sapiens)
- Sequence (O43614 whole entry): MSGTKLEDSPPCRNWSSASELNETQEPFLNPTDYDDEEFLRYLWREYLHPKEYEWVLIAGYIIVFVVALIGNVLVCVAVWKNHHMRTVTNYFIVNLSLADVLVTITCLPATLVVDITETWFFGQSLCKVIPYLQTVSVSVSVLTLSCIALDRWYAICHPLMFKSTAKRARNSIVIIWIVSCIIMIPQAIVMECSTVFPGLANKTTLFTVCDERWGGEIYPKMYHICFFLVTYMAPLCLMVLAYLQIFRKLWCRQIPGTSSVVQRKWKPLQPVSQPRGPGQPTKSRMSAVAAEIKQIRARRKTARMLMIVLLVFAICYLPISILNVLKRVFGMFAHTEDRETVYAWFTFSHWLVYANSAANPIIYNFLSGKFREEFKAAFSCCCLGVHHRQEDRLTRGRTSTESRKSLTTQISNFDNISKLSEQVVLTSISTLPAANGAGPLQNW
- assay_summary: Displacement of [125l]orexin A from human orexin 2 receptor expressed in CHO cells after 1 hr
- Format: cell-based
property_label: pKi
// pKi is dimensionless: -log10 of concentration (M)

COc1ccc([C@H](C)NC(=O)COc2cc(C(F)(F)F)c3c(-c4ccccc4)nn(C)c3n2)cc1	8.40

Now let's try a different one.
I am curious: what pKi value has been reported for CC(NC(=O)COc1cc(C(F)(F)F)c2c(-c3ccccc3)nn(C)c2n1)c1ccccc1 (racemic) ?
6.77

----------
- assay_summary: Intrinsic clearance in mouse liver microsomes
- Format: ADME
- condition_details: read-out: CLH
property_label: microsomal CLint (µL/min/mg)
Your answer is read as µL/min/mg, so omit the unit and give the number.

Cc1n[nH]c(C)c1[C@H](C)NC(=O)COc1cc(C(F)(F)F)c2c(-c3ccccc3)nn(C)c2n1	330

Now let's try a different one.
I am curious: what microsomal CLint value has been reported for COc1ccc([C@H](C)NC(=O)COc2cc(C(F)(F)F)c3c(-c4ccccc4)nn(C)c3n2)cc1 ?
478

----------
- measurement_target: Cytochrome P450 2C9 (Homo sapiens, UniProt P11712)
- Sequence (P11712 whole entry): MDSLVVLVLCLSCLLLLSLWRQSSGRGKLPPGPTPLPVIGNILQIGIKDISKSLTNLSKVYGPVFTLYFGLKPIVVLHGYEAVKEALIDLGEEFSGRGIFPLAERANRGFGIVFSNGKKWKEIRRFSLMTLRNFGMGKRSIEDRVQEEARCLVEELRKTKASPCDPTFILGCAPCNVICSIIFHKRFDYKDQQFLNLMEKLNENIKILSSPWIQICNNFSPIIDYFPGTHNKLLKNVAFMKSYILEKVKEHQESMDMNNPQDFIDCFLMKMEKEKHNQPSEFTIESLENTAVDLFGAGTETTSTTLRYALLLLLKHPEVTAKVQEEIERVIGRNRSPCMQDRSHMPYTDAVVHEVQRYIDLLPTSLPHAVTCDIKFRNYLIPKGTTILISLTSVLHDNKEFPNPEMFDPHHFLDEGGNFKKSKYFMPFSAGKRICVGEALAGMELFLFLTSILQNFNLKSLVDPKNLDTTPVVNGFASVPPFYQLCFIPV
- assay_summary: Inhibition of CYP2C9 (unknown origin)
- Assay type: ADME
property_label: pIC50
// pIC50 is dimensionless: -log10 of concentration (M)

I am curious: what pIC50 value has been reported for COc1ccc([C@H](C)NC(=O)COc2cc(C(F)(F)F)c3c(-c4ccccc4)nn(C)c3n2)cc1 ?
5.30

----------
# key: entry, value: Ki
- measurement_target: Orexin receptor type 2 (Homo sapiens)
- assay_summary: Antagonist activity against human orexin 2 receptor after 1 hr by Ca2+ sensitive Fluo4-AM fluorescent dye-based FLIPR assay
- Type: functional
- condition_details: read-out: Ki
Your answer is read as nM, so omit the unit and give the number.

Cc1ccc([C@H](C)NC(=O)COc2cc(C)c3c(-c4ncccn4)nn(C)c3n2)cc1	5
CC(NC(=O)COc1cc(C(F)(F)F)c2c(-c3ccccc3)nn(C)c2n1)c1ccccc1 (racemic)	78
C[C@H](NC(=O)COc1cc(C(F)(F)F)c2c(-c3ccccn3)nn(C)c2n1)c1ccccc1	367

Now let's try a different one.
I am curious: what Ki value has been reported for Cc1nn(C)c(C)c1[C@H](C)NC(=O)COc1cc(C(F)(F)F)c2c(-c3ccccc3)nn(C)c2n1 ?
10

----------
- assay_summary: Oral bioavailability in mouse at 3 mg/kg administered through cassette dosing
- Type: ADME, organism-based
- condition_details: in vivo
property_label: bioavailability (%)
Your answer is read as %, so omit the unit and give the number.

Worked cases, answers included:
COc1ccc([C@H](C)NC(=O)COc2cc(C(F)(F)F)c3c(-c4ccccc4)nn(C)c3n2)cc1	3
Cc1n[nH]c(C)c1[C@H](C)NC(=O)COc1cc(C(F)(F)F)c2c(-c3ccccc3)nn(C)c2n1	21

Now let's try a different one.
I am curious: what bioavailability value has been reported for Cc1ccc2c(n1)CC[C@@H]2NC(=O)COc1cc(C)c2c(C3CC3)nn(C)c2n1 ?
16

----------
- assay_summary: Octanol/water partition coefficient, logP of the compound
- Type: physicochemical
property_label: logP
Could you keep your reply to the number by itself?

Cc1ccc([C@H](C)NC(=O)COc2cc(C)c3c(-c4cnccn4)nn(C)c3n2)cc1	3.9
COc1ccc([C@H](C)NC(=O)COc2cc(C(F)(F)F)c3c(-c4ccccc4)nn(C)c3n2)cc1	4.6
Cc1nn(C)c(C)c1C(C)NC(=O)COc1cc(C(F)F)c2c(C3CC3)nn(C)c2n1 (racemic)	2.8

I am curious: what logP value has been reported for Cc1nn(C)c(C)c1C(C)NC(=O)COc1cc(C(F)F)c2c(-c3ccccc3)nn(C)c2n1 (racemic) ?
3.9

I am curious: what logP value has been reported for C[C@H](NC(=O)COc1cc(C(F)(F)F)c2c(-c3ccccc3)nn(C)c2n1)c1ccccc1 ?
4.7

I am curious: what logP value has been reported for Cc1n[nH]c(C)c1[C@H](C)NC(=O)COc1cc(C(F)(F)F)c2c(-c3ccccc3)nn(C)c2n1 ?
4.2

I am curious: what logP value has been reported for Cc1cc2c(cn1)[C@@H](NC(=O)COc1cc(C)c3c(C4CC4)nn(C)c3n1)CC2 ?
3.5

I am curious: what logP value has been reported for Cc1ccc([C@H](C)NC(=O)COc2cc(C)c3c(-c4ncccn4)nn(C)c3n2)cc1 ?
3.3

I am curious: what logP value has been reported for C[C@H](NC(=O)COc1cc(C(F)(F)F)c2c(-c3ccccn3)nn(C)c2n1)c1ccccc1 ?
3.5

----------
# key: entry, value: microsomal CLint
- assay_summary: Intrinsic clearance in rat liver microsomes
- Type: ADME
- condition_details: read-out: CLH
Your answer is read as µL/min/mg, so omit the unit and give the number.

I am curious: what microsomal CLint value has been reported for COc1ccc([C@H](C)NC(=O)COc2cc(C(F)(F)F)c3c(-c4ccccc4)nn(C)c3n2)cc1 ?
147

I am curious: what microsomal CLint value has been reported for Cc1nn(C)c(C)c1C(C)NC(=O)COc1cc(C(F)F)c2c(C3CC3)nn(C)c2n1 (racemic) ?
660

I am curious: what microsomal CLint value has been reported for Cc1cc2c(cn1)[C@@H](NC(=O)COc1cc(C)c3c(C4CC4)nn(C)c3n1)CC2 ?
924

I am curious: what microsomal CLint value has been reported for C[C@H](NC(=O)COc1cc(C(F)(F)F)c2c(-c3ccccn3)nn(C)c2n1)c1ccccc1 ?
924

I am curious: what microsomal CLint value has been reported for Cc1n[nH]c(C)c1[C@H](C)NC(=O)COc1cc(C(F)(F)F)c2c(-c3ccccc3)nn(C)c2n1 ?
603

----------
- Species: Homo sapiens
- assay_summary: Selectivity ratio of Ki for human orexin 1 receptor to Ki for human orexin 2 receptor
property_label: Ratio Ki
Could you keep your reply to the number by itself?

Worked cases, answers included:
CC(NC(=O)COc1cc(C(F)(F)F)c2c(-c3ccccc3)nn(C)c2n1)c1ccccc1 (racemic)	1.54
COc1ccccc1C(C)NC(=O)COc1cc(C(F)(F)F)c2c(-c3ccccc3)nn(C)c2n1 (racemic)	1.73
C[C@H](NC(=O)CNc1cc(C(F)(F)F)c2c(-c3ccccc3)nn(C)c2n1)c1ccccc1	0.31
COc1ccc(C(C)NC(=O)COc2cc(C(F)(F)F)c3c(-c4ccccc4)nn(C)c3n2)cc1 (racemic)	14.5
Cc1ccc2c(n1)CC[C@@H]2NC(=O)COc1cc(C)c2c(C3CC3)nn(C)c2n1	4.95
C[C@H](NC(=O)COc1cc(C(F)(F)F)c2c(-c3ccccc3)nn(C)c2n1)c1ccccc1	1.62

I am curious: what Ratio Ki value has been reported for C[C@H](NC(=O)COc1cc(C(F)(F)F)c2c(-c3ccccc3)n[nH]c2n1)c1ccccc1 ?
4.65

I am curious: what Ratio Ki value has been reported for COc1cccc(C(C)NC(=O)COc2cc(C(F)(F)F)c3c(-c4ccccc4)nn(C)c3n2)c1 (racemic) ?
0.77

----------
- assay_summary: in vivo
- condition_details: mouse, brain / blood, po, 3 mg/kg
- Description: Ratio of drug level in brain to blood in mouse at 3 mg/kg, po at 1 hr post dose administered through cassette dosing
property_label: Kp at 1 h
Could you keep your reply to the number by itself?

I am curious: what Kp at 1 h value has been reported for Cc1ccc2c(n1)CC[C@@H]2NC(=O)COc1cc(C)c2c(C3CC3)nn(C)c2n1 ?
0.13

I am curious: what Kp at 1 h value has been reported for COc1ccc([C@H](C)NC(=O)COc2cc(C(F)(F)F)c3c(-c4ccccc4)nn(C)c3n2)cc1 ?
1.15

----------
- assay_summary: Equilibrium solubility of the compound at pH 6.8
- Type: physicochemical
- condition_details: buffer
# key: entry, value: solubility thermodynamic
Your answer is read as µM, so omit the unit and give the number.

Worked cases, answers included:
Cc1ccc([C@H](C)NC(=O)COc2cc(C)c3c(-c4ncccn4)nn(C)c3n2)cc1	43
Cc1nn(C)c(C)c1C(C)NC(=O)COc1cc(C(F)F)c2c(-c3ccccc3)nn(C)c2n1 (racemic)	248
Cc1nn(C)c(C)c1C(C)NC(=O)COc1cc(C(F)F)c2c(C3CC3)nn(C)c2n1 (racemic)	657

I am curious: what solubility thermodynamic value has been reported for Cc1ccc([C@H](C)NC(=O)COc2cc(C)c3c(-c4cnccn4)nn(C)c3n2)cc1 ?
115

I am curious: what solubility thermodynamic value has been reported for C[C@H](NC(=O)COc1cc(C(F)(F)F)c2c(-c3ccccn3)nn(C)c2n1)c1ccccc1 ?
40

I am curious: what solubility thermodynamic value has been reported for Cc1cc2c(cn1)[C@@H](NC(=O)COc1cc(C)c3c(C4CC4)nn(C)c3n1)CC2 ?
25
